# Tested On: human serum albumin (HSA) (Homo sapiens, UniProt P02768)
# Sequence (P02768 25-609): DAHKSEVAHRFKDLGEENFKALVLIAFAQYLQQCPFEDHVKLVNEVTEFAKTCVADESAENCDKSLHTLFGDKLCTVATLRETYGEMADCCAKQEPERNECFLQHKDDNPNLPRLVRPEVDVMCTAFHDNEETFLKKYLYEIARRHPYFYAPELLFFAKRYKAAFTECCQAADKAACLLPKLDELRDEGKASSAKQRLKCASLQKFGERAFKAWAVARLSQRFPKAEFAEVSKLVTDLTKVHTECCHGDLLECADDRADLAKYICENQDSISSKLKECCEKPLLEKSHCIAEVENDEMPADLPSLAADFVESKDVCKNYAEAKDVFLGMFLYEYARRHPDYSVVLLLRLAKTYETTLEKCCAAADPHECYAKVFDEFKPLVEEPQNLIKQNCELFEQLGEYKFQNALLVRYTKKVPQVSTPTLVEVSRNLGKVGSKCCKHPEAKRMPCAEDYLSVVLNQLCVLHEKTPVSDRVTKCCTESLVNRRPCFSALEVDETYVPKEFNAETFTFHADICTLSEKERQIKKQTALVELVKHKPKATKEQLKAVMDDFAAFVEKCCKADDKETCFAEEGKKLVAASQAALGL
# Assay Details: Differential scanning fluorimetry
# Condition Info: PFAS; 0.125 mM HSA; maximal melting temperature shift
Returns yes (1) if the recorded ΔTm is greater than or equal to 10 °C, and no (0) otherwise.

Answered cases to consult:
Compound | Classification
O=C(O)C(F)(F)C(F)(F)C(F)(F)C(F)(F)C(F)(F)C(F)(F)C(F)(F)C(F)(F)C(F)(F)F | yes (1)
O=C(O)C(F)(F)C(F)(F)C(F)(F)F | no (0)
OCCC(F)(F)C(F)(F)C(F)(F)C(F)(F)C(F)(F)C(F)(F)F | no (0)
O=C(O)CCC(F)(F)C(F)(F)C(F)(F)F | no (0)
O=C(O)CCC(F)(F)C(F)(F)C(F)(F)C(F)(F)C(F)(F)F | no (0)

*Q* hey, is ΔTm for this one >= 10 °C? O=S(=O)(O)C(F)(F)C(F)(F)C(F)(F)C(F)(F)F
*A* yes (1)

*Q* hey, is ΔTm for this one >= 10 °C? O=S(=O)(O)CCC(F)(F)C(F)(F)C(F)(F)C(F)(F)C(F)(F)C(F)(F)F [6:2 FTSA, 2H,2H,3H,3H-perfluorooctane-1-sulfonate]
*A* no (0)

*Q* hey, is ΔTm for this one >= 10 °C? O=S(=O)(O)CCC(F)(F)C(F)(F)C(F)(F)C(F)(F)F
*A* no (0)

*Q* hey, is ΔTm for this one >= 10 °C? O=C(O)C(F)(F)C(F)(F)C(F)(F)C(F)(F)C(F)(F)F
*A* yes (1)

*Q* hey, is ΔTm for this one >= 10 °C? OCCC(F)(F)C(F)(F)C(F)(F)C(F)(F)F
*A* no (0)

---

# Tested On: human serum albumin (HSA) (Homo sapiens)
# Assay Details: Differential scanning fluorimetry
# Condition Info: PFAS; 0.125 mM HSA; 4-parameter variable slope model; mean ± SD
Property Measured: pEC50
Numbers only, as −log10 of the molar value.

A selection of reference data follows.
Molecule | Tested On | Property Measured | Recorded Measurement
O=C(O)CCC(F)(F)C(F)(F)C(F)(F)C(F)(F)C(F)(F)C(F)(F)F [6:3 FTCA, 2,H,2H,3H,3H-perfluorononanoic acid] | human serum albumin (HSA) (Homo sapiens) | pEC50 | 3.08
O=C(O)C(F)(F)C(F)(F)C(F)(F)C(F)(F)C(F)(F)C(F)(F)C(F)(F)C(F)(F)C(F)(F)C(F)(F)F [PFunDA, Perfluoroundecanoic acid] | human serum albumin (HSA) (Homo sapiens) | pEC50 | 2.83
O=C(O)C(F)(F)C(F)(F)C(F)(F)F [PFBA, perfluorobutanoic acid] | human serum albumin (HSA) (Homo sapiens) | pEC50 | 2.58
O=S(=O)(O)CCC(F)(F)C(F)(F)C(F)(F)C(F)(F)C(F)(F)C(F)(F)F [6:2 FTSA, 2H,2H,3H,3H-perfluorooctane-1-sulfonate] | human serum albumin (HSA) (Homo sapiens) | pEC50 | 3.33
O=C(O)C(F)(OC(F)(F)C(F)(F)C(F)(F)F)C(F)(F)F (stereo not drawn) [HFPO-DA, hexafluoropropylene oxide dimer acid] | human serum albumin (HSA) (Homo sapiens) | pEC50 | 2.74

# context switch: different molecule, same pEC50
*Q* Give the measured pEC50 of O=S(=O)(O)C(F)(F)C(F)(F)C(F)(F)C(F)(F)C(F)(F)C(F)(F)C(F)(F)C(F)(F)F [PFOS, perfluorooctanesulfonic acid] .
*A* 2.95
